Assay: Confirmation and Secondary Assay for Modulators of Hemoglobin Beta Chain Splicing at IVS2 654 locus (AID 910);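 note: HeLa cells stably carrying EGFP split by mutant beta-globin IVS2-654 intron; per-well total GFP intensity by laser scanning cytometry after 2-day treatment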
Conditions: HeLa EGFP-654 splicing reporter, GFP fluorescence, 48 h; series mostly up to 38.3 µM
Method: NIH Chemical Genomics Center [NCGC] NIH Molecular Libraries Screening Centers Network [MLSCN] […] NCGC Assay Protocol Summary: Confirmatory Screening. […] Plates were read in the Acumen Explorer (TTP Labtech) using 488 nm laser excitation and 500-520 nm emission PMT filter in a 1 x […] capture mode. Fluorescnet objects ranging in size from 5 to 250 uM were measured and the total peak GFP intensity for each well was used for data analysis. […]
The source made the active and inactive calls. Calls come from the whole dose curve; as a rule, active = well fitted activation curve with a large enough effect; inconclusive = small, poorly fitted or top-dose-only effect; inactive = flat fitted curve, though single readings scatter.

>  <molecule>
O=C(O)c1cc(=O)c2cccc(O)c2[nH]1

>  <outcome>
inactive

$$$$
>  <molecule>
COc1ccccc1CNc1ccnc(-c2ccccc2C(F)(F)F)n1

>  <outcome>
inactive

$$$$
>  <molecule>
CC1(C)SC2C(NC(=O)Cc3ccccc3)C(=O)N2C1C(=O)O (stereo unspecified)

>  <outcome>
inactive

$$$$
>  <molecule>
COCCNc1nc(-c2ccccc2C)nc2ccccc12

>  <outcome>
inactive

$$$$
>  <molecule>
CN(C)Cc1ccccc1-c1ccc2ncnc(N3CCOCC3)c2c1

>  <outcome>
inactive

$$$$
>  <molecule>
CN(C)Cc1ccccc1-c1ccc2ncnc(NC3CC3)c2c1

>  <outcome>
inactive

$$$$
